These entries and their values trace back to ChEMBL document CHEMBL2086327.

# Test system: Nucleic Acid
# ASSAY_COMMENT: Binding affinity to Escherichia coli 23S rRNA U2506 assessed as degree of protection against CMCT at 5 uM by Chemical footprinting analysis relative to control
# Format: nucleic-acid assay
Let's look at some compounds and their measured Ratio.

# query: Ratio of entry C=C[C@]1(C)C[C@@H](OC(=O)CSCCN(CC)CC)[C@]2(C)[C@H](C)CC[C@]3(CCC(=O)[C@H]32)[C@@H](C)[C@@H]1O [TIAMULIN]
0.07

Name the recorded Ratio for C=C[C@]1(C)C[C@@H](OC(=O)Cn2cc(/C=C/Cn3cnc4c(N)ncnc43)nn2)[C@]2(C)[C@H](C)CC[C@]3(CCC(=O)[C@H]32)[C@@H](C)[C@@H]1O .
0.1

Could you share which Ratio value was measured for C=C[C@]1(C)C[C@@H](OC(=O)Cn2cc(COCn3cc(C)c(=O)[nH]c3=O)nn2)[C@]2(C)[C@H](C)CC[C@]3(CCC(=O)[C@H]32)[C@@H](C)[C@@H]1O ?
0.23

Field request: Ratio | item: C=C[C@]1(C)C[C@@H](OC(=O)Cn2cc(COCc3ccccc3)nn2)[C@]2(C)[C@H](C)CC[C@]3(CCC(=O)[C@H]32)[C@@H](C)[C@@H]1O
0.3

Given C=C[C@]1(C)C[C@@H](OC(=O)Cn2cc(-c3ccc(-n4cnc5c(N)ncnc54)cc3)nn2)[C@]2(C)[C@H](C)CC[C@]3(CCC(=O)[C@H]32)[C@@H](C)[C@@H]1O , state its recorded Ratio.
0.18

# lookup: Ratio of C=C[C@]1(C)C[C@@H](OC(=O)Cn2ccnn2)[C@]2(C)[C@H](C)CC[C@]3(CCC(=O)[C@H]32)[C@@H](C)[C@@H]1O
0.48

Now turn to the next compound.
Recorded Ratio for C=C[C@]1(C)C[C@@H](OC(=O)Cn2cc(C[C@@H]3[C@H](O)[C@@H](CO)O[C@H]3n3ccc(=O)[nH]c3=O)nn2)[C@]2(C)[C@H](C)CC[C@]3(CCC(=O)[C@H]32)[C@@H](C)[C@@H]1O , please?
0.31
